Cited source for all entries: paper PMC9295122

# assay_system: PmSiaT (Proteus mirabilis, UniProt B4EZY7)
# Construct: made in house
# Sequence (B4EZY7 whole entry): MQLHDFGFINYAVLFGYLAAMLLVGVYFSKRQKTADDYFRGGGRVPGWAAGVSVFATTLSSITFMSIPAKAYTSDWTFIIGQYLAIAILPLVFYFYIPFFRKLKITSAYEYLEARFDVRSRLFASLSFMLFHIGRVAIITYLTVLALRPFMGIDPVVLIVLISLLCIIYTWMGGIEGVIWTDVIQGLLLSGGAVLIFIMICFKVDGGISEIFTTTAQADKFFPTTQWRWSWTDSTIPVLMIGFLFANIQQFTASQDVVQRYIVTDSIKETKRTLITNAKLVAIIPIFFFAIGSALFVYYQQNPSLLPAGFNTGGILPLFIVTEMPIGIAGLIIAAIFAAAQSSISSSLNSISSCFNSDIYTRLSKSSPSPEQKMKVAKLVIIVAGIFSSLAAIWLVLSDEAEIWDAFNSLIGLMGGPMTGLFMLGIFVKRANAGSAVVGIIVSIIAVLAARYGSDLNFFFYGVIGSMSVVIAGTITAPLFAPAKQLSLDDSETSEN
# protocol_summary: Isothermal titration calorimetry, PmSiaT
# Assay type: binding
# stated_conditions: ITC
Can you tell me PmSiaT ΔG° for the items I'm about to list?

Prompt: Kindly state the measured PmSiaT ΔG° obtained for CC(=O)NC1C(OCc2cc(F)cc(F)c2)CC(O)(C(=O)O)OC1C(O)C(O)CO (stereo not shown) with PmSiaT (Proteus mirabilis, UniProt B4EZY7).
Response: -7.12 kcal/mol

Prompt: Short answer please: PmSiaT ΔG°, PmSiaT (Proteus mirabilis, UniProt B4EZY7), entry CC(=O)NC1C(OCc2ccccc2)CC(O)(C(=O)O)OC1C(O)C(O)CO (stereo not shown)
Response: -6.91 kcal/mol

Prompt: Entry CC(=O)N[C@H]1[C@H]([C@H](O)[C@H](O)CO)OC(O)(C(=O)O)C[C@@H]1O (stereo partly shown) [Neu5Ac, 5-N-acetyl neuraminic acid, reference compound] , system PmSiaT (Proteus mirabilis, UniProt B4EZY7): what PmSiaT ΔG° was measured?
Response: -5.86 kcal/mol

Prompt: Hi! What's the reported PmSiaT ΔG° for CC(=O)NC1C(OCc2cc(Br)cc(Br)c2)CC(O)(C(=O)O)OC1C(O)C(O)CO (stereo not shown) on PmSiaT (Proteus mirabilis, UniProt B4EZY7)?
Response: -8.96 kcal/mol

* * *

# assay_system: SaSiaT (Staphylococcus aureus, UniProt A0A0H2XJ46)
# Sequence (A0A0H2XJ46 entry or part of it): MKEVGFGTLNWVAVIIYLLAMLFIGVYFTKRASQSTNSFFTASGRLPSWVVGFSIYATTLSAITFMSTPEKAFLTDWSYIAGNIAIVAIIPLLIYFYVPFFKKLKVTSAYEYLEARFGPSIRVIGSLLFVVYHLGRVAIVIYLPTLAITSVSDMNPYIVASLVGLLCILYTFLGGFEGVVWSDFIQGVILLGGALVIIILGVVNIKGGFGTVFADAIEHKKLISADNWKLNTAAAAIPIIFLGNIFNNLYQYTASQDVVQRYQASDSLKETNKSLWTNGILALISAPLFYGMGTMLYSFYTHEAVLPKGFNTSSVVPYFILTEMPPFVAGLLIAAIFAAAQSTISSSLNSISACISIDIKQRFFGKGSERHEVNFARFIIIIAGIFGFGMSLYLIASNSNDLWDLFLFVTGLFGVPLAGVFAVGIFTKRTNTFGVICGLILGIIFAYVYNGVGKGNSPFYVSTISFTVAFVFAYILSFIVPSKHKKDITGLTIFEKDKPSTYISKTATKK
# protocol_summary: nanoDSF thermal shift assay, SaSiaT
# Type: binding
# stated_conditions: SaSiaT Tm, average of experiment 1
reported_property: Average 1 (°C)
Numeric answer only, unit °C assumed.

Prompt: Item under review: CC(C)(C)C(=O)NC1C(O)CC(O)(C(=O)O)OC1C(O)C(O)CO (centres unmarked) [Compound 6c] . Reported Average 1?
Response: 43.5

Prompt: I would be grateful if you could share the reported Average 1 for CC(=O)NC1C(OCc2cc(Br)cc(Br)c2)CC(O)(C(=O)O)OC1C(O)C(O)CO (centres unmarked) [Compound 3f] .
Response: 53.1

Prompt: Given the entry CC(=O)N[C@H]1[C@H]([C@H](O)[C@H](O)CO)OC(C(=O)O)=C[C@@H]1O [Compound 9, reference compound] , report its measured Average 1.
Response: 45.1

Prompt: Any idea what Average 1 was measured for CC(=O)NC1C(OCc2ccc(F)cc2)CC(O)(C(=O)O)OC1C(O)C(O)CO (centres unmarked) [Compound 3b] ?
Response: 56.4

Prompt: Name the recorded Average 1 for CC(=O)NC1C(OCc2cc(F)cc(F)c2)CC(O)(C(=O)O)OC1C(O)C(O)CO (centres unmarked) [Compound 3e] .
Response: 57.3

Prompt: Consider the compound CC(=O)NC1C(O)CC(O)(C(=O)O)OC1C(O)C(O)CN=[N+]=[N-] (centres unmarked) [Compound 8g] and give its measured Average 1.
Response: 48.7

Prompt: Need Average 1 of CC(=O)NC1C(OCc2ccc(C#N)cc2)CC(O)(C(=O)O)OC1C(O)C(O)CO (centres unmarked) [Compound 3d] , thanks.
Response: 54.4

Prompt: # query: Average 1 of entry CCC(=O)NC1C(O)CC(O)(C(=O)O)OC1C(O)C(O)CO (centres unmarked) [Compound 6a]
Response: 40.8

* * *

# assay_system: PmSiaT (Proteus mirabilis)
# Construct: made in house
# protocol_summary: nanoDSF thermal shift assay, PmSiaT
# Assay type: binding
# stated_conditions: PmSiaT Tm, average of experiment 1
reported_property: Average 1 (°C)
Kindly answer with a numeric value in °C, unit omitted.

Prompt: Which Average 1 reading was recorded for the compound CC(=O)NC1C(O)CC(O)(C(=O)O)OC1C(O)C(O)CN=[N+]=[N-] (stereo not shown) [Compound 8g] ?
Response: 46.0

Prompt: Reported Average 1, compound CC(=O)N[C@H]1[C@H]([C@H](O)[C@H](O)CO)OC(C(=O)O)=C[C@@H]1O [Compound 9, reference compound] : ____
Response: 45.9

Prompt: Need Average 1 of O=C(CO)N[C@H]1[C@H]([C@H](O)[C@H](O)CO)OC(O)(C(=O)O)C[C@@H]1O (stereo partly shown) [Neu5Gc, 5-N-glycolyl neuraminic acid, reference compound] , thanks.
Response: 48.0

Prompt: Which Average 1 value belongs to O=C(Cc1ccccc1)NC1C(O)CC(O)(C(=O)O)OC1C(O)C(O)CO (stereo not shown) [Compound 6e] ?
Response: 45.4

Prompt: Give the measured Average 1 of CC(=O)NC1C(OCc2ccccc2)CC(O)(C(=O)O)OC1C(O)C(O)CO (stereo not shown) [Compound 3a] .
Response: 54.6

Prompt: Given the compound CC(=O)NC1C(OCc2ccc(F)cc2)CC(O)(C(=O)O)OC1C(O)C(O)CO (stereo not shown) [Compound 3b] , what is its reported Average 1?
Response: 53.2

Prompt: Given CC(=O)NC1C(OCc2ccc(C#N)cc2)CC(O)(C(=O)O)OC1C(O)C(O)CO (stereo not shown) [Compound 3d] , state its recorded Average 1.
Response: 55.3

* * *

# assay_system: SaSiaT (Staphylococcus aureus, UniProt A0A0H2XJ46)
# protocol_summary: nanoDSF thermal shift assay, SaSiaT
# Assay type: binding
# stated_conditions: SaSiaT Tm, experiment 3, second capillary, 1.25 mM
Class MET: Replicate 3 at least 50 °C. Class NOT MET: Replicate 3 below 50 °C.

Prompt: Is it the case that CC(=O)NC1C(OCc2ccc(C#N)cc2)CC(O)(C(=O)O)OC1C(O)C(O)CO (stereo not drawn) has Replicate 3 reaching or exceeding 50 °C?
Response: MET

Prompt: Decide: Replicate 3 of O=C(CO)N[C@H]1[C@H]([C@H](O)[C@H](O)CO)OC(O)(C(=O)O)C[C@@H]1O (stereo partly drawn) [Neu5Gc, 5-N-glycolyl neuraminic acid, reference compound] >= 50 °C?
Response: MET

Prompt: Form field: Replicate 3 at least 50 °C? Entry: CCC(=O)NC1C(O)CC(O)(C(=O)O)OC1C(O)C(O)CO (stereo not drawn)
Response: NOT MET

Prompt: I'd appreciate it if you could say whether CC(=O)N[C@H]1[C@H]([C@H](O)[C@H](O)CO)OC(C(=O)O)=C[C@@H]1O [Compound 9, reference compound] has Replicate 3 at least equal to 50 °C.
Response: NOT MET

Prompt: Check this compound for Replicate 3 at or above 50 °C: CC(=O)NC1C(OCc2ccc(Br)cc2)CC(O)(C(=O)O)OC1C(O)C(O)CO (stereo not drawn)
Response: MET

Prompt: Say whether CC(=O)NC1C(O)CC(O)(C(=O)O)OC1C(O)C(O)CBr (stereo not drawn) shows Replicate 3 of 50 °C or more.
Response: MET

Prompt: // inclusive: Replicate 3 at least 50 °C? input: CC(=O)NC1C(OCc2ccc(F)cc2)CC(O)(C(=O)O)OC1C(O)C(O)CO (stereo not drawn)
Response: MET

Prompt: Could you verify whether the entry [N-]=[N+]=NCC(=O)N[C@H]1[C@H]([C@H](O)[C@H](O)CO)O[C@@](O)(C(=O)O)C[C@@H]1O [Compound 6h, reference compound] shows Replicate 3 of no less than 50 °C?
Response: MET

Prompt: Check the entry CC(=O)NC1C(O)CC(O)(C(=O)O)OC1C(O)C(C)O (stereo not drawn) : does Replicate 3 equal or exceed 50 °C?
Response: NOT MET

Prompt: Assess whether reported Replicate 3 for O=C(CF)NC1C(O)CC(O)(C(=O)O)OC1C(O)C(O)CO (stereo not drawn) sits at 50 °C or higher.
Response: MET

Prompt: Is the recorded value of Replicate 3 equal to or greater than 50 °C for this compound? CC(=O)NC1C(OCc2cc(Br)cc(Br)c2)CC(O)(C(=O)O)OC1C(O)C(O)CO (stereo not drawn)
Response: MET

Prompt: Would you say CC(C)C(=O)NC1C(O)CC(O)(C(=O)O)OC1C(O)C(O)CO (stereo not drawn) shows Replicate 3 at minimum 50 °C?
Response: NOT MET

Prompt: State whether the measured Replicate 3 reaches 50 °C, counting equality as reaching it, for CC(=O)NC1C(OCc2ccccc2)CC(O)(C(=O)O)OC1C(O)C(O)CO (stereo not drawn)
Response: MET

Prompt: # bool: Replicate 3 of CC(=O)NC1C(OCc2cc(F)cc(F)c2)CC(O)(C(=O)O)OC1C(O)C(O)CO (stereo not drawn) >= 50 °C
Response: MET

Prompt: State whether the measured Replicate 3 reaches 50 °C, counting equality as reaching it, for CC(C)(C)C(=O)NC1C(O)CC(O)(C(=O)O)OC1C(O)C(O)CO (stereo not drawn)
Response: NOT MET

Prompt: // inclusive: Replicate 3 at least 50 °C? input: CC(=O)NC1C(O)CC(O)(C(=O)O)OC1C(O)C(O)CN=[N+]=[N-] (stereo not drawn)
Response: NOT MET

Prompt: Does the reported Replicate 3 for O=C(NC1C(O)CC(O)(C(=O)O)OC1C(O)C(O)CO)c1ccccc1 (stereo not drawn) fall at or above the 50 °C mark?
Response: NOT MET
